molecular target: androgen receptor (rat ventral prostate cytosol) (Rattus norvegicus, UniProt P15207); construct: from tissue; host or cells: ventral prostate cytosol of castrated male Sprague Dawley or Wistar rats; test: Androgen Receptor Binding Using Rat Ventral Prostate Cytosol; details: Concentration 1000 nM
Sequence (P15207 whole entry S389L): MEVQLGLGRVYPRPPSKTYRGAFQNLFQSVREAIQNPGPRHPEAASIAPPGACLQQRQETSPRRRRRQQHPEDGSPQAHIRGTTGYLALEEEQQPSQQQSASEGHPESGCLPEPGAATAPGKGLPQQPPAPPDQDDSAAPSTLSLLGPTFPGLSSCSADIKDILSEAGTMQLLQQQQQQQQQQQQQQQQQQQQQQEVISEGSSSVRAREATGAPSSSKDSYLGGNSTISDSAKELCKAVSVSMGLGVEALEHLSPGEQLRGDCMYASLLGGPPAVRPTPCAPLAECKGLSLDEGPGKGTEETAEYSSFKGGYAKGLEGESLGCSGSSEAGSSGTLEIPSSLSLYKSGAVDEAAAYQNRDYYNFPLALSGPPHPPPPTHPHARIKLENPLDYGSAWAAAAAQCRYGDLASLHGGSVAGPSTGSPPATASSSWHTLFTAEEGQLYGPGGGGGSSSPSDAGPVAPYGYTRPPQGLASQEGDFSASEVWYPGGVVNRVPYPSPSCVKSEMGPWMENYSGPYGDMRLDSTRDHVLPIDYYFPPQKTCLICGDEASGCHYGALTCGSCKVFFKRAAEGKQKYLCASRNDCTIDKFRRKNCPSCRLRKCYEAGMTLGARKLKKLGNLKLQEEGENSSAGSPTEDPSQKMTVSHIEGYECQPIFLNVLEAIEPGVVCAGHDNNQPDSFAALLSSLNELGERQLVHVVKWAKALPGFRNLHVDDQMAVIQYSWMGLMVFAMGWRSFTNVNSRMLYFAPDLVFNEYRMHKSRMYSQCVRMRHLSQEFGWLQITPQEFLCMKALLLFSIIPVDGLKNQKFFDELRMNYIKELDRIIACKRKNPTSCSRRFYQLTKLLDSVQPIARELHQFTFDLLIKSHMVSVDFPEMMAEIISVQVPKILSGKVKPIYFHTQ
RECORDED ENDPOINT: % Inhibition, Androgen Receptor Binding (Rat Cytosol)

MOLECULE	SYSTEM UNDER TEST	MEASURED VALUE
OC1(c2cc3cc(Cl)c(C(F)(F)F)cc3[nH]2)CCN(Cc2ccc(C(F)(F)F)cc2)CC1	androgen receptor (rat ventral prostate cytosol) (Rattus norvegicus, UniProt P15207)	11%
Cc1ccc(CN2CCC(O)(c3cc4cc(Cl)c(C(F)(F)F)cc4[nH]3)CC2)cc1	androgen receptor (rat ventral prostate cytosol) (Rattus norvegicus, UniProt P15207)	−7.7%
CS(=O)(=O)c1ccc(CN2CCC(O)(c3cc4cc(Cl)c(C(F)(F)F)cc4[nH]3)CC2)cc1	androgen receptor (rat ventral prostate cytosol) (Rattus norvegicus, UniProt P15207)	18%

// each listed molecule needs a value for % Inhibition, Androgen Receptor Binding (Rat Cytosol)
1. O=[N+]([O-])c1cc2cc(C3(O)CCN(Cc4ccc(Cl)c(Cl)c4)CC3)[nH]c2cc1C(F)(F)F
2. CC(O)(COC(=O)c1ccc(Cl)cc1)c1cc2cc(Cl)c(C(F)(F)F)cc2[nH]1 (racemic)
3. COc1cccc(CN2CCC(O)(c3cc4cc(Cl)c(C(F)(F)F)cc4[nH]3)CC2)c1
4. CS(=O)(=O)n1c(C2(O)CCN(C(=O)OCc3ccccc3)CC2)cc2cc(Cl)c(C(F)(F)F)cc21
5. O=C(c1ccc(Cl)cc1)N1CCC(O)(c2cc3cc(Cl)c(C(F)(F)F)cc3[nH]2)CC1

Completion:
1. 5.8%
2. 69%
3. −1.8%
4. −55%
5. −83.5%

Ref: patent US7282507B2
